# growth AUC normalised to DMSO control listing for each entry below
# System: P. vulgatus RND KO
# measurement.description: growth AUC normalised to DMSO control (median) (fraction of control); higher = less growth inhibition, active = hit call of the paper
# condition.description: 20 µM
Where a name gives a salt, the structure may show the parent alone.
Format: numeric value only, no unit, no commentary.

- compound: "Cc1cc2c(cc1S(N)(=O)=O)S(=O)(=O)CCC2 [Meticrane]"
  parameter: "growth AUC normalised to DMSO control"
  recorded.number: 1.03
- compound: "CNCCc1ccccn1 [Betahistine mesylate]"
  parameter: "growth AUC normalised to DMSO control"
  recorded.number: 1
- compound: "CC(=O)Nc1c(I)c(NC(C)=O)c(I)c(C(=O)O)c1I [Diatrizoic acid dihydrate]"
  parameter: "growth AUC normalised to DMSO control"
  recorded.number: 0.922
- compound: "Nc1nc(=O)[nH]cc1F [Flucytosine]"
  parameter: "growth AUC normalised to DMSO control"
  recorded.number: 0.996
- compound: "Cn1nnnc1SCC1=C(C(=O)O)N2C(=O)[C@@H](NC(=O)[C@H](O)c3ccccc3)[C@H]2SC1 [Cefamandole sodium salt]"
  parameter: "growth AUC normalised to DMSO control"
  recorded.number: 0.204

Prompt line: May I ask what growth AUC normalised to DMSO control has been recorded for N[C@@H](C(=O)N[C@@H]1C(=O)N2C(C(=O)O)=C(Cl)CS[C@H]12)c1ccccc1 [Cefaclor hydrate] ?
Response line: 1.04

Prompt line: Quick check: growth AUC normalised to DMSO control of O=C1CN(/N=C/c2ccc([N+](=O)[O-])o2)C(=O)N1 [Nitrofurantoin] ?
Response line: 0.253

====

# Tested on: P. vulgatus WT
# measurement.description: growth AUC normalised to DMSO control (median) (fraction of control); higher = less growth inhibition, active = hit call of the paper
# condition.description: 20 µM
Where a name gives a salt, the structure may show the parent alone.
Classify as follows. Reported growth AUC normalised to DMSO control greater than or equal to 1: met. Reported growth AUC normalised to DMSO control below: not met.

Example entries begin here.
- compound: "CCCOc1cc(N)ccc1C(=O)OCCN(CC)CC [Propoxycaine hydrochloride]"
  answer.label: "met"
- compound: "CCCN(CCC)C(=O)C(CCC(=O)O)NC(=O)c1ccccc1 (stereo not given) [Proglumide]"
  answer.label: "met"

Prompt line: Decide: is the reported value of growth AUC normalised to DMSO control for CC(C)Cn1cnc2c(N)nc3ccccc3c21 [Imiquimod] equal to or greater than 1?
Response line: not met

====

# Test system: S. enterica typhimurium tolC KO
# measurement.description: growth AUC normalised to DMSO control (median) (fraction of control); higher = less growth inhibition, active = hit call of the paper
# condition.description: 20 µM
Structures can show the parent of a compound that is named as a salt.
Recorded growth AUC normalised to DMSO control values for a group of molecules are listed next.
A bare number is all that is needed in reply.

Record excerpt, results attached:
- molecule: "C[C@H](CCC(=O)O)[C@H]1CC[C@H]2[C@@H]3[C@@H](O)C[C@@H]4C[C@H](O)CC[C@]4(C)[C@H]3CC[C@]12C [Urosiol]"
  recorded.number: 1.01
- molecule: "N=c1ccn2c(n1)O[C@H]1[C@H](O)[C@@H](CO)O[C@H]12 [Ancitabine hydrochloride]"
  recorded.number: 0.991
- molecule: "COC(=O)[C@H]1[C@H]2C[C@@H]3c4[nH]c5cc(OC)ccc5c4CCN3C[C@H]2C[C@@H](OC(=O)c2cc(OC)c(OC)c(OC)c2)[C@@H]1OC [Reserpine]"
  recorded.number: 1
- molecule: "CC(C)NCC(O)COc1cccc2[nH]ccc12 (configuration not stated) [Pindolol]"
  recorded.number: 1.01
- molecule: "COc1ccc(-c2cc(=S)ss2)cc1 [Anethole-trithione]"
  recorded.number: 0.91
- molecule: "CC(=O)Oc1cc2c(s1)CCN(C(C(=O)C1CC1)c1ccccc1F)C2 (configuration not stated) [Prasugrel]"
  recorded.number: 1.01

Prompt line: # get_value(readout='growth AUC normalised to DMSO control', item= Cc1cc(C(C)(C)C)cc(C)c1CC1=NCCN1 [Xylometazoline hydrochloride] )
Response line: 0.989

Prompt line: Tell me the measured growth AUC normalised to DMSO control of O=C(Oc1ccccc1)c1ccccc1O [Phenyl salicylate] , please.
Response line: 0.975

Prompt line: Any idea what its growth AUC normalised to DMSO control is? The molecule is O=C1[C@H](CC[C@H](O)c2ccc(F)cc2)[C@@H](c2ccc(O)cc2)N1c1ccc(F)cc1 [Ezetimibe]
Response line: 0.828

Prompt line: Recorded growth AUC normalised to DMSO control of Nc1ccc(S(=O)(=O)Nc2ccnn2-c2ccccc2)cc1 [Sulfaphenazole] , please.
Response line: 0.981

Prompt line: Fill in the blank: the reported growth AUC normalised to DMSO control of C[C@@](Cc1ccc(O)c(O)c1)(NN)C(=O)O [Carbidopa] is ____.
Response line: 1.01

Prompt line: What value of measured growth AUC normalised to DMSO control is listed for CCOC(=O)C1=C[C@@H](OC(CC)CC)[C@H](NC(C)=O)[C@@H](N)C1 [Oseltamivir phosphate] ?
Response line: 0.984

Prompt line: Name the reported growth AUC normalised to DMSO control value associated with the molecule CC(Cc1cccc(C(F)(F)F)c1)NCCOC(=O)c1ccccc1 (configuration not stated) [Benfluorex]
Response line: 0.98

Prompt line: Entry CCCC(=O)Nc1ncnc2c1ncn2[C@@H]1O[C@@H]2COP(=O)(O)O[C@H]2[C@H]1OC(=O)CCC [Bucladesine sodium salt] has what growth AUC normalised to DMSO control?
Response line: 1.01

Prompt line: Look up growth AUC normalised to DMSO control: CC(N/C(=N\C#N)Nc1ccncc1)C(C)(C)C (configuration not stated) [Pinacidil monohydrate]
Response line: 0.976

Prompt line: Quick one: growth AUC normalised to DMSO control of C#C[C@]1(O)CC[C@H]2[C@@H]3CCC4=CC(=O)CC[C@@H]4[C@H]3CC[C@@]21CC [(D-) Norgestrel] ?
Response line: 1

Prompt line: Name the reported growth AUC normalised to DMSO control value associated with the molecule CC[C@@H]1C(=O)OC[C@@H]1Cc1cncn1C [Pilocarpine nitrate]
Response line: 1

====

# System: S. enterica typhimurium tolC KO
# measurement.description: growth AUC normalised to DMSO control (median) (fraction of control); higher = less growth inhibition, active = hit call of the paper
# condition.description: 20 µM
Counter-ions that a name gives are not always drawn.
Hi! Could you answer with just one of these? true (active), false (inactive)

Example cases with answers are listed next.
- molecule: "CCCC1O[C@@H]2C[C@H]3[C@@H]4CCC5=CC(=O)C=C[C@]5(C)[C@H]4[C@@H](O)C[C@]3(C)[C@]2(C(=O)CO)O1 (stereo partly drawn) [Budesonide]"
  answer.label: "false"
- molecule: "NC[C@@H]1O[C@@H](O[C@H]2[C@H](O)[C@@H](O[C@H]3O[C@H](CO)[C@@H](O)[C@H](N)[C@H]3O)[C@H](N)C[C@@H]2N)[C@@H](O)[C@H](O)[C@H]1O [Kanamycin A sulfate]"
  answer.label: "false"
- molecule: "N=C(N)NC(=O)c1nc(Cl)c(N)nc1N [Amiloride hydrochloride dihydrate]"
  answer.label: "false"
- molecule: "CCC1=C(C)CN(C(=O)NCCc2ccc(S(=O)(=O)NC(=O)N[C@H]3CC[C@H](C)CC3)cc2)C1=O [Glimepiride]"
  answer.label: "false"
- molecule: "CCCCCCCCNC(C)C(O)c1ccc(SC(C)C)cc1 (stereo not drawn)"
  answer.label: "false"

Prompt line: Please indicate how the test categorized CC(C)[C@H]1CC[C@H](C(=O)N[C@H](Cc2ccccc2)C(=O)O)CC1 [Nateglinide] .
Response line: false

Prompt line: Write down the call the test reported for this molecule. Item: CCN(CC)CCNC(=O)c1ccc(N)cc1 [Procainamide hydrochloride]
Response line: false

Prompt line: I would be grateful if you could indicate the recorded call for CCN1CC(CCN2CCOCC2)C(c2ccccc2)(c2ccccc2)C1=O (stereo not drawn) [Doxapram hydrochloride] .
Response line: false

Prompt line: Test call for this molecule, please: CCCCC(CC)CN1CN(CC(CC)CCCC)CC(C)(N)C1 (stereo not drawn)
Response line: false

====

# System: Shigella flexneri
# measurement.description: growth AUC normalised to DMSO control (fraction of control); higher = less growth inhibition, active = hit call of the paper
# condition.description: 20 µM
Structures can show the parent of a compound that is named as a salt.
parameter: growth AUC normalised to DMSO control
Note: the reply should be a number with no unit written.

Previously resolved entries follow.
- compound: "COC1=CC(=O)C[C@@H](C)[C@]12Oc1c(Cl)c(OC)cc(OC)c1C2=O"
  growth AUC normalised to DMSO control: 0.998
- compound: "CN(Cc1cc(Br)cc(Br)c1N)C1CCCCC1 [Bromhexine hydrochloride]"
  growth AUC normalised to DMSO control: 1.01
- compound: "CC(C)NCC(O)c1ccc(O)c(O)c1 (single isomer, unassigned; (-)) [(-) Isoproterenol hydrochloride]"
  growth AUC normalised to DMSO control: 1.03
- compound: "CCN(CC)CCOC(=O)C1(c2ccc([N+](=O)[O-])cc2)CCCC1 [Nitrocaramiphen hydrochloride]"
  growth AUC normalised to DMSO control: 0.993
- compound: "CC(C)(C)NCC(O)c1cc(O)cc(O)c1 (configuration not stated) [Terbutaline hemisulfate]"
  growth AUC normalised to DMSO control: 1.03

Prompt line: Data request, read-out growth AUC normalised to DMSO control, for `C#C[C@]1(O)CC[C@H]2[C@@H]3CCC4=C(CCC(=O)C4)[C@H]3CC[C@@]21C`
Response line: 1

Prompt line: Bench note: what growth AUC normalised to DMSO control did `C[C@H]1O[C@H](O[C@H]2[C@H](O)[C@@H](O)[C@@H](O[C@@H]([C@H](O)[C@@H](O)C=O)[C@H](O)CO)O[C@@H]2CO)[C@H](O)[C@@H](O)[C@@H]1N[C@H]1C=C(CO)[C@@H](O)[C@H](O)[C@H]1O` show?
Response line: 0.995
